Record form. Attribute: activity at 10 µM. Fill in for each entry.
- System: K-562
- assayProcedure: NCI-60 single-dose antiproliferative screen
- Type: cell-based
- protocolConditions: Homo sapiens, K562, 48 h, read-out: growth percent
Please respond with the number in % and leave the unit unwritten.

// activity at 10 µM lookup, key: COc1cc(CNC(=O)CCCC/C=C/C(C)C)ccc1OCc1cn(-c2ccc(C)cc2)nn1 [14n]
80

// activity at 10 µM lookup, key: CCc1ccc(-n2cc(COc3ccc(CNC(=O)CCCC/C=C/C(C)C)cc3OC)nn2)cc1 [14o]
78.6

// activity at 10 µM lookup, key: COc1cc(CNC(=O)CCCC/C=C/C(C)C)ccc1OCc1cn(-c2ccc(C#N)cc2)nn1 [14j]
75.4

// activity at 10 µM lookup, key: COc1cc(CNC(=O)CCCC/C=C/C(C)C)ccc1OCc1cn(-c2cccc(Cl)c2)nn1 [14b]
84.9

// activity at 10 µM lookup, key: COc1cc(CNC(=O)CCCC/C=C/C(C)C)ccc1OCc1cn(-c2ccccc2OC)nn1 [14l]
76.1

* * *

- System: SW-620
- assayProcedure: NCI-60 single-dose antiproliferative screen
- Type: cell-based
- protocolConditions: Homo sapiens, SW-620, 48 h, read-out: growth percent
Record form. Attribute: activity at 10 µM. Fill in for each entry.
Please respond with the number in % and leave the unit unwritten.

I'm curious: which activity at 10 µM was measured for COc1cc(CNC(=O)CCCC/C=C/C(C)C)ccc1OCc1cn(-c2ccc([N+](=O)[O-])cc2)nn1 [14e] tested on SW-620?
99.8

I'm curious: which activity at 10 µM was measured for COc1cc(CNC(=O)CCCC/C=C/C(C)C)ccc1OCc1cn(-c2ccc(C(F)(F)F)cc2)nn1 [14g] tested on SW-620?
41.3

I'm curious: which activity at 10 µM was measured for COc1cc(CNC(=O)CCCC/C=C/C(C)C)ccc1OCc1cn(-c2cccc(Cl)c2)nn1 [14b] tested on SW-620?
92.8

I'm curious: which activity at 10 µM was measured for COc1cc(CNC(=O)CCCC/C=C/C(C)C)ccc1OCc1cn(-c2ccc(C#N)cc2)nn1 [14j] tested on SW-620?
98

I'm curious: which activity at 10 µM was measured for COc1cc(CNC(=O)CCCC/C=C/C(C)C)ccc1OCc1cn(-c2ccc(Cl)c(Cl)c2)nn1 [14d] tested on SW-620?
96.1

I'm curious: which activity at 10 µM was measured for COc1cc(CNC(=O)CCCC/C=C/C(C)C)ccc1OCc1cn(-c2ccccc2OC)nn1 [14l] tested on SW-620?
97

I'm curious: which activity at 10 µM was measured for COc1cc(CNC(=O)CCCC/C=C/C(C)C)ccc1OCc1cn(-c2ccc(C)c(C)c2)nn1 [14p] tested on SW-620?
95.2

I'm curious: which activity at 10 µM was measured for COc1cc(CNC(=O)C[C@H](C)CCC=C(C)C)ccc1OCc1cn(-c2ccc(Cl)cc2)nn1 [18b] tested on SW-620?
76.8

I'm curious: which activity at 10 µM was measured for CCc1ccc(-n2cc(COc3ccc(CNC(=O)CCCC/C=C/C(C)C)cc3OC)nn2)cc1 [14o] tested on SW-620?
103

* * *

- Tested on: NCI/ADR-RES
- assayProcedure: NCI-60 single-dose antiproliferative screen
- Assay type: cell-based
- protocolConditions: Homo sapiens, 48 h, read-out: growth percent
We use 90% as the dividing line for activity at 10 µM: on or above the line is MET, below is NOT MET.

Evaluate COc1cc(CNC(=O)C[C@H](C)CCC=C(C)C)ccc1OCc1cn(-c2ccc(Cl)cc2)nn1 [18b] : activity at 10 µM at minimum 90%?
NOT MET

Evaluate COc1cc(CNC(=O)CCCC/C=C/C(C)C)ccc1OCc1cn(-c2ccccc2OC)nn1 [14l] : activity at 10 µM at minimum 90%?
MET

Evaluate COc1cc(CNC(=O)CCCC/C=C/C(C)C)ccc1OCc1cn(-c2cccc([N+](=O)[O-])c2)nn1 [14f] : activity at 10 µM at minimum 90%?
NOT MET

Evaluate COc1cc(CNC(=O)CCCC/C=C/C(C)C)ccc1OCc1cn(-c2ccc([N+](=O)[O-])cc2)nn1 [14e] : activity at 10 µM at minimum 90%?
NOT MET

Evaluate COc1cc(CNC(=O)CCCC/C=C/C(C)C)ccc1OCc1cn(-c2ccc(C#N)cc2)nn1 [14j] : activity at 10 µM at minimum 90%?
NOT MET

Evaluate COc1cc(CNC(=O)CCCC/C=C/C(C)C)ccc1OCc1cn(-c2ccc(C(F)(F)F)cc2)nn1 [14g] : activity at 10 µM at minimum 90%?
NOT MET

* * *

Record form. Attribute: activity at 10 µM. Fill in for each entry.
- Test system: OVCAR-4
- assayProcedure: NCI-60 single-dose antiproliferative screen
- Format: cell-based
- protocolConditions: Homo sapiens, OVCAR-4, 48 h, read-out: growth percent
Please respond with the number in % and leave the unit unwritten.

// activity at 10 µM lookup, key: COc1cc(CNC(=O)CCCC/C=C/C(C)C)ccc1OCc1cn(-c2ccc(F)cc2)nn1 [14h]
82.2

// activity at 10 µM lookup, key: COc1cc(CNC(=O)CCCC/C=C/C(C)C)ccc1OCc1cn(-c2ccc([N+](=O)[O-])cc2)nn1 [14e]
87.2

// activity at 10 µM lookup, key: COc1cc(CNC(=O)CCCC/C=C/C(C)C)ccc1OCc1cn(-c2ccc(Cl)cc2)nn1 [14a]
82.6

// activity at 10 µM lookup, key: COc1cc(CNC(=O)CCCC/C=C/C(C)C)ccc1OCc1cn(-c2ccc(C(F)(F)F)cc2)nn1 [14g]
98.6

// activity at 10 µM lookup, key: COc1cc(CNC(=O)CCCC/C=C/C(C)C)ccc1OCc1cn(-c2ccc(C#N)cc2)nn1 [14j]
94.9

// activity at 10 µM lookup, key: COc1cc(CNC(=O)CCCC/C=C/C(C)C)ccc1OCc1cn(-c2cccc([N+](=O)[O-])c2)nn1 [14f]
94.2

// activity at 10 µM lookup, key: COc1cc(CNC(=O)CCCC/C=C/C(C)C)ccc1OCc1cn(-c2ccccc2Cl)nn1 [14c]
87.9

// activity at 10 µM lookup, key: COc1cc(CNC(=O)CCCC/C=C/C(C)C)ccc1OCc1cn(-c2cccc(Cl)c2)nn1 [14b]
67.2

* * *

Record form. Attribute: activity at 10 µM. Fill in for each entry.
- Tested on: OVCAR-8
- assayProcedure: NCI-60 single-dose antiproliferative screen
- Assay type: cell-based
- protocolConditions: Homo sapiens, OVCAR-8, 48 h, read-out: growth percent
Please respond with the number in % and leave the unit unwritten.

// activity at 10 µM lookup, key: COc1cc(CNC(=O)CCCC/C=C/C(C)C)ccc1OCc1cn(-c2ccc(Cl)c(Cl)c2)nn1 [14d]
91

// activity at 10 µM lookup, key: COc1cc(CNC(=O)C[C@H](C)CCC=C(C)C)ccc1OCc1cn(-c2ccc(Cl)cc2)nn1 [18b]
49.1

// activity at 10 µM lookup, key: COc1cc(CNC(=O)CCCC/C=C/C(C)C)ccc1OCc1cn(-c2cccc(Cl)c2)nn1 [14b]
57.2

// activity at 10 µM lookup, key: COc1cc(CNC(=O)CCCC/C=C/C(C)C)ccc1OCc1cn(-c2ccc(F)cc2)nn1 [14h]
71.5

* * *

- System: OVCAR-8
- assayProcedure: NCI-60 single-dose antiproliferative screen
- Format: cell-based
- protocolConditions: Homo sapiens, OVCAR-8, 48 h, read-out: growth percent
experimentalReadout: activity at 10 µM
Please format your answer as a value with the unit trailing.

I'm curious: which activity at 10 µM was measured for COc1cc(CNC(=O)CCCC/C=C/C(C)C)ccc1OCc1cn(-c2ccc([N+](=O)[O-])cc2)nn1 [14e] tested on OVCAR-8?
82.9%

I'm curious: which activity at 10 µM was measured for COc1cc(CNC(=O)CCCC/C=C/C(C)C)ccc1OCc1cn(-c2ccc(Br)cc2)nn1 [14k] tested on OVCAR-8?
79.6%

I'm curious: which activity at 10 µM was measured for COc1cc(CNC(=O)CCCC/C=C/C(C)C)ccc1OCc1cn(-c2ccccc2F)nn1 [14i] tested on OVCAR-8?
94.5%

I'm curious: which activity at 10 µM was measured for COc1cc(CNC(=O)CCCC/C=C/C(C)C)ccc1OCc1cn(-c2ccc(C)cc2)nn1 [14n] tested on OVCAR-8?
76.5%

I'm curious: which activity at 10 µM was measured for COc1cc(CNC(=O)CCCC/C=C/C(C)C)ccc1OCc1cn(-c2ccc(C)c(C)c2)nn1 [14p] tested on OVCAR-8?
83.3%
